- experimental.system: Human Constitutive (Hu C-20S) β5 Active Subunit (Homo sapiens)
- test.details: IC50 determination, human constitutive 20S proteasome β5c (suc-LLVY-AMC hydrolysis)
- Type: biochemical
- experimental.setup: Table 3; IC50 against human constitutive β5 active subunit; read-out: Hu-C20S β5
outcome.measure: IC50

Example molecules with recorded IC50:
>>> recorded_value("C[C@H](NC(=O)[C@H](CC(=O)N1CCCC[C@@H]1C)NC(=O)Cc1ccccc1)c1ncc(-c2ccc(F)cc2F)[nH]1")
"10.2 µM"
>>> recorded_value("C[C@H](NC(=O)[C@H](CC(=O)N1CCC[C@@H]1c1ccccc1)NC(=O)CCC(C)(C)C)c1nc2ccccc2[nH]1")
"16.6 µM"
>>> recorded_value("C[C@H](NC(=O)[C@H](CC(=O)N1CCCC[C@@H]1C)NC(=O)N(C)Cc1ccccc1)c1nc2c(F)cccc2[nH]1")
"17.2 µM"
>>> recorded_value("Cc1ccc(S(=O)(=O)N[C@@H](CC(=O)NC(C)(C)C)C(=O)NC2(c3nc4c(F)cccc4[nH]3)CC2)cc1")
"> 100 µM"
>>> recorded_value("C[C@H](NC(=O)[C@H](CC(=O)N1CCCC[C@@H]1C)NC(=O)CCC1CC1)c1ncc(-c2ccc(F)cc2F)[nH]1")
"11.7 µM"

Request: Bench note: what IC50 did Cc1ccc(S(=O)(=O)N[C@@H](CC(=O)N2CCCC[C@@H]2C)C(=O)N[C@@H](C)c2ncc(-c3ccc(F)cc3F)[nH]2)cc1 show?
Result: 6.5 µM

Request: # query: IC50 of entry Cc1cc(C(=O)N[C@@H](CC(=O)N2CCCC[C@@H]2C)C(=O)N[C@@H](C)c2nc3ccccc3[nH]2)no1
Result: 17.5 µM

Request: Query (molecule): CC(C)C1CC1C(=O)N[C@@H](CC(=O)N1CCCC[C@@H]1C)C(=O)N[C@@H](C)c1nc2c(F)cccc2[nH]1 (some centres unmarked) ; field requested: IC50
Result: 2.7 µM

Request: Which IC50 is listed for C[C@H](NC(=O)[C@H](CC(=O)N1CCCC[C@@H]1C)NC(=O)CC1CC1)c1ncc(Cc2ccccc2)[nH]1 ?
Result: 10.4 µM

Request: What does the data say about its IC50? Entry: Cc1cc(C(=O)N[C@@H](CC(=O)N2CCCC[C@@H]2C)C(=O)N[C@@H](C)c2ncc(-c3ccccc3F)[nH]2)no1
Result: 15.8 µM

Request: IC50 for CC[C@H]1CCCCN1C(=O)C[C@H](NC(=O)N(C)Cc1ccccc1)C(=O)N[C@@H](C)c1nc2c(F)cccc2[nH]1 ?
Result: 3.3 µM

Request: Quick one: IC50 of CC(C)CCS(=O)(=O)N[C@@H](CC(=O)N1CCCC[C@@H]1C)C(=O)N[C@@H](C)c1ncc(-c2ccc(F)cc2F)[nH]1 ?
Result: 9.7 µM

Request: Param item = CC[C@H]1CCCCN1C(=O)C[C@H](NC(=O)CC1CC1)C(=O)N[C@@H](C)c1nc2c(F)cccc2[nH]1 ; retrieve measured IC50.
Result: 16.9 µM

Request: # input molecule: C[C@H](NC(=O)[C@@H](NC(=O)CCc1ccc(F)cc1)[C@@H](C)O)c1nc2c(F)cccc2[nH]1 ; wanted: its IC50
Result: > 100 µM
